Catalogue of compounds with associated Ki
Biological target: UniProt P23458
Sequence (P23458 whole entry): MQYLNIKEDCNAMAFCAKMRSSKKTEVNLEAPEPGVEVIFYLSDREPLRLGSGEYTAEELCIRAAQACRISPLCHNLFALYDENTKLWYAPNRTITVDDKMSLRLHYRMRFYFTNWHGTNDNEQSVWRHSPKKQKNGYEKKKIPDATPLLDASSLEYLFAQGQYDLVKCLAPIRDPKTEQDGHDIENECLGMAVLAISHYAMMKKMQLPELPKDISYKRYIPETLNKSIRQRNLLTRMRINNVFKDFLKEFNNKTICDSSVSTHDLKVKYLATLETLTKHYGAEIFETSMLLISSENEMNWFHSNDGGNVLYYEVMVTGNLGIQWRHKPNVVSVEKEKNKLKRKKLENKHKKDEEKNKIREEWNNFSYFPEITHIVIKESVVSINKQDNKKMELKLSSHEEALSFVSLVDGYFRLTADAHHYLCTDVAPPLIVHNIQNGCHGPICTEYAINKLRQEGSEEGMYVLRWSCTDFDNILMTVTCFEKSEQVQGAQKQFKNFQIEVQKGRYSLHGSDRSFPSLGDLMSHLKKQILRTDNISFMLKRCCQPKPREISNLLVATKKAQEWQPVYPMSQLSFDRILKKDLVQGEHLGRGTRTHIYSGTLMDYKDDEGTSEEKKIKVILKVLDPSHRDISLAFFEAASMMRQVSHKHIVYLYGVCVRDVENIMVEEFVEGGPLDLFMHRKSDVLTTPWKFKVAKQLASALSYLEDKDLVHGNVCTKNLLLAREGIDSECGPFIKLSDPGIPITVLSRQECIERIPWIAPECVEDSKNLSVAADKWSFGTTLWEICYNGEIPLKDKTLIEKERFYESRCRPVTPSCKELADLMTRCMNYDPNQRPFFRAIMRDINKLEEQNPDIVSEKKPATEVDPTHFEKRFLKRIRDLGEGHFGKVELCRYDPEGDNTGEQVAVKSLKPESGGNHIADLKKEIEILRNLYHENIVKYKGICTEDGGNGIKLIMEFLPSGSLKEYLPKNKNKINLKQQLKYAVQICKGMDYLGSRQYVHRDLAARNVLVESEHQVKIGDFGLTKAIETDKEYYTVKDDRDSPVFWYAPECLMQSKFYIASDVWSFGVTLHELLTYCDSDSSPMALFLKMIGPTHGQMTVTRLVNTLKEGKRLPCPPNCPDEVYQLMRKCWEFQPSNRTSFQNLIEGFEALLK
Test: Biochemical JAK kinase assay (LanthaScreen), JAK1
Conditions: read-out: JAK1 pKi (converted)

These solved cases illustrate the format of a correct answer.
{"Compound": "Oc1ccc(-c2ccc3c(-c4nc(C5=CCNC5)c[nH]4)n[nH]c3c2)c(CC(F)(F)F)c1 [Example 378]", "Reported Result": "0.1 to 1 nM"}
{"Compound": "CCc1cc(O)ccc1-c1ccc2c(-c3nc(C4=CCN(CCCO)C4)c[nH]3)n[nH]c2c1 [Example 297]", "Reported Result": "0.1 to 1 nM"}
{"Compound": "CCc1cc(O)ccc1-c1ccc2c(-c3nc(C4=CC(C)(C)NC(C)(C)C4)c[nH]3)n[nH]c2c1 [Example 226]", "Reported Result": "0.1 to 1 nM"}
{"Compound": "CCc1cc(O)ccc1-c1ccc2c(-c3nc(C4=CC(CC)NC4)c[nH]3)n[nH]c2c1F (stereo not shown) [Example 321]", "Reported Result": "0.1 to 1 nM"}
{"Compound": "CCc1cc(O)ccc1-c1ccc2c(-c3nc(C4=C[C@H](CC#N)NC4)c[nH]3)n[nH]c2c1F [Example 247]", "Reported Result": "0.1 to 1 nM"}
{"Compound": "CCc1cc(O)ccc1-c1ccc2c(-c3nc(C4=CC(C(C)C)NC4)c[nH]3)n[nH]c2c1F (stereo not shown) [Example 388]", "Reported Result": "1 to 10 nM"}

What reported Ki corresponds to CCc1cc(O)c(C)cc1-c1ccc2c(-c3nc(C4=CCNC4)c[nH]3)n[nH]c2c1F [Example 328] on UniProt P23458?
0.1 to 1 nM

----------
Tested on: IL-13 induced STAT6 phosphorylation in BEAS-2B human lung epithelial cells
Test: Cellular JAKI potency assay (BEAS-2B)
Type: cell-based
Conditions: Homo sapiens, BEAS-2B, BEAS-2B cells, read-out: BEAS2B pIC50 (converted)
Reported Metric: IC50

These solved cases illustrate the format of a correct answer.
{"Compound": "CCc1cc(O)ccc1-c1ccc2c(-c3nc(C4=CCNC4C)c[nH]3)n[nH]c2c1F (stereo not shown)", "IC50": "0.01 to 0.0316 µM"}
{"Compound": "CCc1cc(O)ccc1-c1ccc2c(-c3nc(C4=CCN(Cc5cn[nH]c5)C4)c[nH]3)n[nH]c2c1", "IC50": "0.01 to 0.0316 µM"}

Report IC50 for CCc1cc(O)ccc1-c1ccc2c(-c3nc(C4=C[C@H](COC)NC4)c[nH]3)n[nH]c2c1F please.
0.00316 to 0.01 µM

What would you report for CCc1cc(O)ccc1-c1ccc2c(-c3nc(C4=CCCN(CCNC(=O)C(C)C)C4)c[nH]3)n[nH]c2c1 ?
0.01 to 0.0316 µM

What would you report for CCc1cc(O)ccc1-c1ccc2c(-c3nc(C4=CCNC(C)(C)C4)c[nH]3)n[nH]c2c1 ?
0.0316 to 0.1 µM

What would you report for CCc1cc(O)ccc1-c1ccc2c(-c3nc(C4=C[C@@H](C)NCC4)c[nH]3)n[nH]c2c1F ?
0.01 to 0.0316 µM

What would you report for CCc1cc(O)ccc1-c1ccc2c(-c3nc(C4=CCN(CCS(=O)(=O)NC)C4)c[nH]3)n[nH]c2c1 ?
0.01 to 0.0316 µM

----------
Biological target: TYK2 (Homo sapiens (Human), UniProt P29597)
Sequence (P29597 whole entry): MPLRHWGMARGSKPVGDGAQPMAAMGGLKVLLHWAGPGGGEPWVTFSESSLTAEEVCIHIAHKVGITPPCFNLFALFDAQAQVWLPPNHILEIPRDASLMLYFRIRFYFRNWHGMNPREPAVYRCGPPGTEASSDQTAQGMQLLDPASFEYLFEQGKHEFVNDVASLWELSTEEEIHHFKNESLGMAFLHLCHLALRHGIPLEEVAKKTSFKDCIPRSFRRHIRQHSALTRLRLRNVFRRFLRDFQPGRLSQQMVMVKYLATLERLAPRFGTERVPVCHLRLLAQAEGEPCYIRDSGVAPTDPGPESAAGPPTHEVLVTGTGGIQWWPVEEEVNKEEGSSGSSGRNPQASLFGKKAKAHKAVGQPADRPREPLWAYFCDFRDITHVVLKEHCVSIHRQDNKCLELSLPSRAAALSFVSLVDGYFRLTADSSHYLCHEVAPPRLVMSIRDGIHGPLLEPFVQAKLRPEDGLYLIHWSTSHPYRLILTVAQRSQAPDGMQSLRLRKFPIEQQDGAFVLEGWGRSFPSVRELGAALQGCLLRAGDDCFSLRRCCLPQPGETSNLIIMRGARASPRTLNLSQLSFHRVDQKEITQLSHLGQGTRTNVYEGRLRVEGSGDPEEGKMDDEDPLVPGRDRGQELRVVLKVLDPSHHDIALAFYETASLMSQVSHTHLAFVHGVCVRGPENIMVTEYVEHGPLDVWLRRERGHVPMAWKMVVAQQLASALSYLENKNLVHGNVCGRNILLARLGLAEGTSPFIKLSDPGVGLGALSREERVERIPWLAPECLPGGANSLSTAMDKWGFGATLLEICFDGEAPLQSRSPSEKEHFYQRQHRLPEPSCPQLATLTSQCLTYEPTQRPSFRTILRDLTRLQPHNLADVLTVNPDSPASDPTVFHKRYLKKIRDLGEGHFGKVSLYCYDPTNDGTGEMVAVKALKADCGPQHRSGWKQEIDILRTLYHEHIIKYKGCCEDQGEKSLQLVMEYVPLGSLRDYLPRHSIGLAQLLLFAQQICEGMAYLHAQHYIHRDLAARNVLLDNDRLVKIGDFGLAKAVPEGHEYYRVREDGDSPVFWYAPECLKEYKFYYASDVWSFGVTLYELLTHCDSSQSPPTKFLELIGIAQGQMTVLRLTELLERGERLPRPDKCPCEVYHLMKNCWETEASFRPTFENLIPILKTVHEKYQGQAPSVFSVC
Experiment: Biochemical JAK kinase assay (LanthaScreen), Tyk2
Conditions: read-out: Tyk2 pKi (converted)
Reported Metric: Ki

These solved cases illustrate the format of a correct answer.
{"Compound": "CCc1cc(O)ccc1-c1ccc2c(-c3nc(C4=CCN(C)CC4)c[nH]3)n[nH]c2c1", "Ki": "0.1 to 1 nM"}
{"Compound": "CCc1cc(O)ccc1-c1ccc2c(-c3nc(C4=CCN(C[C@@H]5COCCN5)C4)c[nH]3)n[nH]c2c1F", "Ki": "1 to 10 nM"}
{"Compound": "CCc1cc(O)ccc1-c1ccc2c(-c3nc(C4=CCN(C5CN(C)C5)C4)c[nH]3)n[nH]c2c1F", "Ki": "1 to 10 nM"}

// next item, Ki requested
Report Ki for CCc1cc(O)ccc1-c1ccc2c(-c3nc(C4=CCN(C5CCNC5)CC4)c[nH]3)n[nH]c2c1F (stereo not shown) please.
1 to 10 nM

----------
Tested on: IL-13 induced STAT6 phosphorylation in BEAS-2B human lung epithelial cells
Experiment: Cellular JAKI potency assay (BEAS-2B)
Assay type: cell-based
Details: Homo sapiens, BEAS-2B, BEAS-2B cells, read-out: BEAS2B pIC50 (converted)
Reported Metric: IC50

{"Molecule": "CCc1cc(O)ccc1-c1ccc2c(-c3nc(C4=CCN(CC5COC5)CC4)c[nH]3)n[nH]c2c1F", "IC50": "10 to 31.6 nM"}

Report IC50 for CCc1cc(O)ccc1-c1ccc2c(-c3nc(C4=CCN(C(=O)NC)C4)c[nH]3)n[nH]c2c1 please.
31.6 to 100 nM

What would you report for CCc1cc(O)ccc1-c1ccc2c(-c3nc(C4=CCN(C(=O)[C@@H](N)Cc5ccccc5)CC4)c[nH]3)n[nH]c2c1F ?
100 to 316 nM

What would you report for CCc1cc(O)ccc1-c1ccc2c(-c3nc(C4=CC[C@H](C)N(CCO)C4)c[nH]3)n[nH]c2c1F ?
10 to 31.6 nM

What would you report for CCc1cc(O)ccc1-c1ccc2c(-c3nc(C4=CCCN(C(C)C)C4)c[nH]3)n[nH]c2c1 ?
3.16 to 10 nM

What would you report for CCc1cc(O)ccc1-c1ccc2c(-c3nc(C4=CCN(C(=O)CN(CCO)CCO)C4)c[nH]3)n[nH]c2c1F ?
31.6 to 100 nM

What would you report for CCc1cc(O)ccc1-c1ccc2c(-c3nc(C4=CCCN(C5CCN(C)CC5)C4)c[nH]3)n[nH]c2c1F ?
10 to 31.6 nM

What would you report for CCc1cc(O)ccc1-c1ccc2c(-c3nc(C4=CCN(C(=O)CN5CCCC5)C4)c[nH]3)n[nH]c2c1F ?
31.6 to 100 nM

What would you report for CCc1cc(O)ccc1-c1ccc2c(-c3nc(C4=CCCN(S(C)(=O)=O)C4)c[nH]3)n[nH]c2c1 ?
10 to 31.6 nM

What would you report for CCc1cc(O)ccc1-c1ccc2c(-c3nc(C4=CCN(C5COC5)C4)c[nH]3)n[nH]c2c1 ?
10 to 31.6 nM

What would you report for CCCCN1CC=C(c2c[nH]c(-c3n[nH]c4c(F)c(-c5ccc(O)cc5CC)ccc34)n2)C1 ?
10 to 31.6 nM

----------
Catalogue of compounds with associated IC50
Test system: IL-13 induced STAT6 phosphorylation in BEAS-2B human lung epithelial cells
Experiment: Cellular JAKI potency assay (BEAS-2B)
Assay type: cell-based
Settings: Homo sapiens, BEAS-2B, BEAS-2B cells, read-out: BEAS2B pIC50 (converted)
Description: The JAKI cellular potency assay was carried out by measuring inhibition of interleukin-13 (IL-13, R&D Systems) induced STAT6 phosphorylation in BEAS-2B human lung epithelial cells (ATCC). […] Levels of pSTAT6 were measured using the AlphaLISA SureFire Ultra pSTAT6 (Tyr641) assay kit from PerkinElmer. For dose-response analysis, percent inhibition data were plotted vs. compound concentrations, and IC50 values were determined from a 4-parameter robust fit model with the Graphpad Prism software. […]

These solved cases illustrate the format of a correct answer.
{"Compound": "CCc1cc(O)ccc1-c1ccc2c(-c3nc(C4=CCN(CCCO)C4)c[nH]3)n[nH]c2c1F", "IC50": "3.16 to 10 nM"}
{"Compound": "CCc1cc(O)ccc1-c1ccc2c(-c3nc(C4=C[C@H](CO)N(CCS(=O)(=O)NC)C4)c[nH]3)n[nH]c2c1F", "IC50": "100 to 316 nM"}
{"Compound": "CCc1cc(O)ccc1-c1ccc2c(-c3nc(C4=CCN(CC(C)C)CC4)c[nH]3)n[nH]c2c1F", "IC50": "10 to 31.6 nM"}
{"Compound": "CCc1cc(O)ccc1-c1ccc2c(-c3nc(C4=C(C)CCNC4)c[nH]3)n[nH]c2c1F", "IC50": "10 to 31.6 nM"}

Report IC50 for CCc1cc(O)ccc1-c1ccc2c(-c3nc(C4=CCN(C(=O)OC)CC4)c[nH]3)n[nH]c2c1 please.
31.6 to 100 nM

What would you report for CCc1cc(O)ccc1-c1ccc2c(-c3nc(C4=CCCN(CCSC)C4)c[nH]3)n[nH]c2c1F ?
31.6 to 100 nM

What would you report for CCc1cc(O)ccc1-c1ccc2c(-c3nc(C4=C[C@H](CC(=O)OC(C)C)NC4)c[nH]3)n[nH]c2c1F ?
10 to 31.6 nM

What would you report for CCc1cc(O)ccc1-c1ccc2c(-c3nc(C4=CC[C@H](C)N(C[C@H](C)CO)C4)c[nH]3)n[nH]c2c1F ?
10 to 31.6 nM

What would you report for CCc1cc(O)ccc1-c1ccc2c(-c3nc(C4=CCCN(C5CCNC5)C4)c[nH]3)n[nH]c2c1F (stereo not drawn) ?
316 to 1000 nM

What would you report for CCc1cc(O)ccc1-c1ccc2c(-c3nc(C4=CCCN(CCO)C4)c[nH]3)n[nH]c2c1 ?
3.16 to 10 nM

What would you report for CCc1cc(O)ccc1-c1ccc2c(-c3nc(C4=CCN([C@H]5CC[C@](O)(C(F)(F)F)CC5)C4)c[nH]3)n[nH]c2c1F ?
100 to 316 nM

What would you report for CCc1cc(O)c(F)cc1-c1ccc2c(-c3nc(C4=CCNCC4)c[nH]3)n[nH]c2c1 ?
3.16 to 10 nM

What would you report for CCc1cc(O)ccc1-c1ccc2c(-c3nc(C4=CCN(C5CC(O)C5)CC4)c[nH]3)n[nH]c2c1F (stereo not drawn) ?
10 to 31.6 nM

What would you report for CCc1cc(O)ccc1-c1ccc2c(-c3nc(C4=CCCN(C5CC(O)C5)C4)c[nH]3)n[nH]c2c1F (stereo not drawn) ?
10 to 31.6 nM

What would you report for CCc1cc(O)ccc1-c1ccc2c(-c3nc(C4=CCN(CCNC(C)=O)C4)c[nH]3)n[nH]c2c1F ?
10 to 31.6 nM
